Biological target: T-cell receptor (TCR)-CD3 interaction, human (TCR alpha chain TRAV4)
Assay: potency of TCR-CD3 interaction inhibitors, dose response, biochemical, fluorescence, TAMRA-labeled TCR probe (AID 686957)
Details: TCR-CD3 binding
Activity calls are given as the source filed them. The rule behind the calls is not given here.
recordedMetric: IC50

Known results for molecules:
CCOC(=O)C1=C(CC)Nc2ccccc2N=C1NC(=O)Nc1ccc(Cl)c(Cl)c1 | inactive
O=C(N/N=C/c1cc([N+](=O)[O-])ccc1O)c1cccc(N2CCCC2=O)c1 | > 94.1 µM (inactive)
CCc1n[nH]c(=S)n1/N=C/c1cc(OC)cc([N+](=O)[O-])c1O | inactive
COCCn1c(=NC(=O)c2cc(-c3cccs3)nc3ccccc23)sc2cc(S(N)(=O)=O)ccc21 | > 94.1 µM (inactive)
O=C(N/N=C/c1c(O)n(Cc2ccco2)c(=O)[nH]c1=O)c1ccccc1O | > 94 µM (inactive)
Cc1c(C(=O)NNC(=O)c2ccccc2O)oc2ccccc12 | > 94 µM (inactive)

# input For `COc1ccc(C(=O)NC(=S)NNC(=O)c2ccc(O)cc2)cc1[N+](=O)[O-]` , what is its reported IC50?
# output > 94.1 µM (inactive)

# input Queued: `O=C(NNC(=S)NC1CCCCC1)c1ccccc1O`
# output > 94.1 µM (inactive)

# input Queued: `O=C(CCN1CCN(c2ccccc2)CC1)N/N=C/c1ccc(O)c(O)c1O`
# output > 94.1 µM (inactive)

# input Queued: `O=C(CCN1C(=O)/C(=C\c2ccccc2)SC1=S)NNC(=O)c1ccccc1O`
# output > 94.1 µM (inactive)

# input Queued: `COCCNC(=O)Nc1ccc2nc(-c3ccco3)c(-c3ccco3)nc2c1`
# output > 94.1 µM (inactive)

# input Queued: CN(C(=O)COC(=O)c1cc(-c2ccco2)nc2ccccc12)C1CCS(=O)(=O)C1 (stereo unspecified)
# output inactive

###

Target: T-cell receptor (TCR)-CD3 interaction, human (TCR alpha chain TRAV4)
Test: potency of TCR-CD3 interaction inhibitors, dose response, biochemical, fluorescence, TAMRA-labeled TCR probe (AID 686957)
Settings: TCR-CD3 binding
Activity calls are given as the source filed them. The rule behind the calls is not given here.
Recorded IC50, one value per entry.

Known results for molecules:
Cc1noc(C)c1COc1ccc(C(=O)NNC(=O)c2ccccc2O)cc1 | > 94.1 µM (inactive)
O=C1C=C(O)c2c(O)cc(O)c(O)c2C1=O | > 94.1 µM (inactive)

# input For `Cc1cccc(C(=O)NCC(=O)NNC(=O)c2ccccc2O)c1` , what is its reported IC50?
# output > 94 µM (inactive)

# input Queued: `CNC(=S)NNC(=O)c1cccn(Cc2cccc(Cl)c2)c1=O`
# output > 94.1 µM (inactive)

# input Queued: `COc1cccc(/C=C2/SC(=S)N(CC(=O)NNC(=O)c3ccccc3O)C2=O)c1`
# output > 94.1 µM (inactive)

# input Queued: `CCOc1ccc(C(=O)CCC(=O)NNC(=O)c2ccccc2O)cc1`
# output > 94.1 µM (inactive)

# input Queued: `C/C(=N\NC(=O)c1nnn(-c2nonc2N)c1CN(C)c1ccccc1)c1ccccc1O`
# output > 94.1 µM (inactive)

# input Queued: `O=C(Cc1ccccc1)NNC(=S)NC(=O)c1cccnc1`
# output > 94.1 µM (inactive)

# input Queued: `O=C(NNC(=O)c1ccccc1F)c1cccc(-n2cccc2)c1`
# output > 94 µM (inactive)

# input Queued: `CNC(=S)NNC(=O)c1cccn(Cc2ccc(Cl)cc2Cl)c1=O`
# output > 94.1 µM (inactive)

# input Queued: `Cc1ccc(NC(=O)NNC(=O)c2cc3ccccc3cc2O)cc1`
# output > 94.1 µM (inactive)

The measured values listed here are drawn from PubChem BioAssay AID686957.
